# STUDY SYSTEM: endogenous GLP-1, calcitonin, and GIP receptors of RINm5f cells
# ASSAY COMMENT: cell-based or functional assay
Where no end group is shown, it is not given here.
Can you tell me GLP/GIP/CT cAMP(RIN) EC50 for the items I'm about to list?
Kindly provide the numeric value in nM only, without the unit symbol.

HGEGTYTNDVTQFLEEKAAKEFIDWLIKGKPKKQRLS (also called nmGLP-1 analog) [SEQ ID NO 55] has a reported GLP/GIP/CT cAMP(RIN) EC50 of 0.576

Value of GLP/GIP/CT cAMP(RIN) EC50 reported for the binder YADAPYISDVYSYLQDQVAKKWLKSGQD (also called nmGLP-1 peptide; naturally occurring nmGLP-1) [SEQ ID NO 51] is 971

// GLP/GIP/CT cAMP(RIN) EC50 lookup, binder = HXEGTYTNDVTQFLEEKAAKEFIDWLIKGKPKKQRLS (here or on the partner: Abu (2-Aminobutyric acid) at position 2) [SEQ ID NO 53] , result: 0.146

According to the records, this binder HADGTFTNDMTSYLDAKAARDFVSWLARSDKS (also called nmGLP-1 peptide; naturally occurring nmGLP-1) [SEQ ID NO 52] displays GLP/GIP/CT cAMP(RIN) EC50 of 382

For this binder ( HAEGTFTSDVTQQLDEKAAKEFIDWLINPGSEGIKSI (also called nmGLP-1 analog) [SEQ ID NO 14] ), measured GLP/GIP/CT cAMP(RIN) EC50 is 18

GLP/GIP/CT cAMP(RIN) EC50 recorded for this binder, HADGTYTSDVSSYLQDQAAKDFITWLKSGQPKPDAVET (also called nmGLP-1 peptide; naturally occurring nmGLP-1) [SEQ ID NO 48] , is 14

Measured GLP/GIP/CT cAMP(RIN) EC50, HAEGTYTNDVTEYLEEKAAKEFIEWLIN (also called nmGLP-1 analog) [SEQ ID NO 24] : 0.85

Input HAEGTYTNDVTEYLEEKAAKEFIEWLIKGKPKKIRYS (also called nmGLP-1 peptide; naturally occurring nmGLP-1) [SEQ ID NO 2] . Output GLP/GIP/CT cAMP(RIN) EC50: 0.36

Sure, the documented GLP/GIP/CT cAMP(RIN) EC50 for HAEGTYTNDVTEYLEEKAAKEFIEWLIK (also called nmGLP-1 analog) [SEQ ID NO 25] is 0.53

Sample HAEGTFTSDVTQQLDEKAAKEFIDWLINGGPSKEIIS (also called nmGLP-1 analog) [SEQ ID NO 11] ; GLP/GIP/CT cAMP(RIN) EC50 observed: 0.59

The reported value for HAEGTFTSDVTQQLDEKAAKEFIDWLIN (also called nmGLP-1 analog) [SEQ ID NO 7] in terms of GLP/GIP/CT cAMP(RIN) EC50 is 4.7

Consider HXEGTFTSDVTQQLDEKAAKEFIDWLIN (here or on the partner: dAla at position 2 (a = dAla)) [SEQ ID NO 8] . Its measured GLP/GIP/CT cAMP(RIN) EC50 is 19

Notebook: HXEGTFTSDVTQQLDEKAAKEFIDWLINGGPSKEIIS (here or on the partner: dAla at position 2 (a = dAla)) [SEQ ID NO 10] , GLP/GIP/CT cAMP(RIN) EC50 read as 0.048

The measured GLP/GIP/CT cAMP(RIN) EC50 associated with HAEGTFTNDMTNYLEEKAAKEFVGWLIKGRS (also called nmGLP-1 analog) [SEQ ID NO 6] reads 1.23

Record summary for HGEGTYTNDVTEYLEEKAAKEFIEWLIKGKPKKIRYS (also called nmGLP-1 analog) [SEQ ID NO 26] : reported GLP/GIP/CT cAMP(RIN) EC50 = 0.967

Recorded result, HXEGTYTNDVTEYLEEKAAKEFIEWLIKGKPKKIRYS (here or on the partner: dAla at position 2 (a = dAla)) [SEQ ID NO 23] , GLP/GIP/CT cAMP(RIN) EC50: 0.22

// sample HADGTYTSDVSSYLQDQAAKDFITWLKSGQPKPDAVETRSVDTL (also called nmGLP-1 peptide; naturally occurring nmGLP-1) [SEQ ID NO 49] , its GLP/GIP/CT cAMP(RIN) EC50 was 415

Lookup result for HAEGTFTSDVTQQLDEKAAKEFIDALINGGPSKEIIS (also called nmGLP-1 analog) [SEQ ID NO 13] ; measured GLP/GIP/CT cAMP(RIN) EC50: 196

Lab note: measured GLP/GIP/CT cAMP(RIN) EC50 of HXEGTYTNDVTEYLEEKAAKEFIEWLIKGKPKKIRYS (here or on the partner: Aib (2-Aminoisobutyric acid) at position 2) [SEQ ID NO 27] was 0.544

binder HAEGTYTNDVTEYLEEKAAKEFIEWLINGGPSKEIIS (also called nmGLP-1 analog) [SEQ ID NO 21] , GLP/GIP/CT cAMP(RIN) EC50 observed: 1

// sample HAEGTFTSDVTQQLEEKAAKEFIEWLIKGKPKKIRYS (also called nmGLP-1 analog) [SEQ ID NO 22] , its GLP/GIP/CT cAMP(RIN) EC50 was 0.1

Note to self: GLP/GIP/CT cAMP(RIN) EC50 recorded for HXEGTYTNDVTQFLEEKAAKEFIDWLIKGKPKKQRLS (here or on the partner: dAla at position 2 (a = dAla)) [SEQ ID NO 54] was 0.435

Noted for HAEGTYTNDVTQFLEEKAAKEFIDWLIKGKPKKQRLS [SEQ ID NO 50] : its GLP/GIP/CT cAMP(RIN) EC50 reads 0.14

Measured GLP/GIP/CT cAMP(RIN) EC50, HAEGTFTSDVTQQLDEKAAKEFIDWLINGGPSKEIIS-OH (also called nmGLP-1 peptide; naturally occurring nmGLP-1) [SEQ ID NO 1] : 1.9

Value of GLP/GIP/CT cAMP(RIN) EC50 reported for the binder HAEGTFTSDVTQQLDEKAAKEFIDWLINGGPSSGAPPPS [SEQ ID NO 9] is 0.28

Form: binder = HAEGTFTSDVTQQLDEKAAKEFIDWLINGGASKEIIS (also called nmGLP-1 analog) [SEQ ID NO 12] ; GLP/GIP/CT cAMP(RIN) EC50 = 0.29
